- method: Primary qHTS for delayed death inhibitors of the malarial parasite plastid, 48 hour incubation
- condition: P. falciparum luciferase growth in erythrocytes; series mostly up to 28.7 µM
Hit rate of the full screen: of about 310,000 compounds, about 18,000 (5.8%) were called active. Not shown: some 22% with an inconclusive outcome. The call rests on the fitted dose curve; in most records, active means well fitted inhibition curve with a large enough effect; inconclusive means small, poorly fitted or top-dose-only effect, or another doubt; inactive means no such curve, though single readings can be large or run the other way. This excerpt belongs to a sample that is enriched for actives.
Select the matching outcome among y (active), n (inactive)

Answered cases to consult:
stdin: Just curious, what result did CC(C)C1N=C2c3ccccc3N=C(SCC(=O)c3ccc(O)c(O)c3)N2C1=O (stereo unspecified) get here?
stdout: y

stdin: Just curious, what result did O=C(O)C1CCC(CNS(=O)(=O)c2ccc(Br)cc2)CC1 (stereo unspecified) get here?
stdout: n

stdin: Just curious, what result did O=C(COC(=O)CNC(=O)C1CCCCC1)Nc1cccc(F)c1 get here?
stdout: n

stdin: Just curious, what result did COCCN1C(=O)N(c2ccc(Cl)cc2)C(=O)C1CC(=O)Nc1cc(OC)cc(OC)c1 (stereo unspecified) get here?
stdout: n

stdin: Just curious, what result did COc1ccccc1C(=O)NCCC(=O)NC1=NCCS1 get here?
stdout: n

stdin: Just curious, what result did COc1ccc(C/C(N)=N/OC(=O)c2ccco2)cc1OC get here?
stdout: n

stdin: Just curious, what result did O=C(CSc1nnc(Nc2ccccc2F)s1)NC1CCCC1 get here?
stdout: n

stdin: Just curious, what result did O=C(CSc1nc2[nH]ncc2c(=O)[nH]1)Nc1ccc(F)cc1 get here?
stdout: n

stdin: Just curious, what result did COc1ccc(C(=O)O/N=C(\N)Cc2ccc(Cl)cc2Cl)cc1OC get here?
stdout: y

stdin: Just curious, what result did CCOc1ccc(NC(=O)c2cc(C)nc3ccccc23)cc1 get here?
stdout: n

Please examine the following record next.
stdin: Just curious, what result did CCOc1ccc(-n2c(O)c(/C=N/Nc3nc(C)cc(C)n3)c3ccccc3c2=O)cc1 get here?
stdout: y

* * *

- method: Primary qHTS for delayed death inhibitors of the malarial parasite plastid, 48 hour incubation
- condition: P. falciparum luciferase growth in erythrocytes; series mostly up to 28.7 µM
- Excerpt: The goal of this screen is to discover new antimalarial compounds that act by inhibiting the development of the apicoplast in the malarial parasite Plasmodium falciparum. […] We have developed a cell-based assay that measures parasite growth based on the expression of an integrated copy of a firefly luciferase reporter. […] Growth inhibition is detected by a decrease in luciferase activity. […]
Hit rate of the full screen: of about 310,000 compounds, about 18,000 (5.8%) were called active. Another 22% or so got no clear call; they are omitted. Calls come from the whole dose curve; as a rule, active = well fitted inhibition curve with a large enough effect; inconclusive = small, poorly fitted or top-dose-only effect, or another doubt; inactive = no such curve, though single readings can be large or run the other way. Only a selection was taken, and actives are over-represented in it overall.
Select the matching outcome among yes (1) = active, no (0) = inactive

stdin: Just curious, what result did CC(C)Oc1ccc(C(=O)NCC(=O)Nc2ccc3c(c2)CCC3)cc1 get here?
stdout: no (0)

stdin: Just curious, what result did CS(=O)(=O)N1CCCC(C(=O)Nc2ccccc2C(F)(F)F)C1 (stereo unspecified) get here?
stdout: no (0)

stdin: Just curious, what result did COc1ccccc1Nc1nc(N)nc(CSC(=S)N2CCOCC2)n1 get here?
stdout: no (0)

stdin: Just curious, what result did COc1ccc(C)cc1S(=O)(=O)N(CC(=O)Nc1cccc([N+](=O)[O-])c1)c1ccc(C)cc1 get here?
stdout: yes (1)

stdin: Just curious, what result did CCN(CC(=O)NCCCN1CCOCC1)S(=O)(=O)c1cc(Cl)ccc1Cl get here?
stdout: no (0)

***
stdin: Just curious, what result did CCN(C(=O)CSc1ncnc2sccc12)c1c(N)n(Cc2ccccc2)c(=O)[nH]c1=O get here?
stdout: no (0)

stdin: Just curious, what result did CN(CC(=O)Nc1cccc(F)c1)CC(=O)Nc1cccc([N+](=O)[O-])c1 get here?
stdout: no (0)

stdin: Just curious, what result did O=C(COc1cccc(Cl)c1)NCc1ccccc1 get here?
stdout: no (0)

stdin: Just curious, what result did CC[C@]1(c2ccccc2OC)C(=O)N(C(=O)OC)N1C(=O)OC get here?
stdout: no (0)

stdin: Just curious, what result did Cc1ccc(N(CC(=O)Nc2cccc(N(C)S(C)(=O)=O)c2)S(C)(=O)=O)cc1 get here?
stdout: no (0)

stdin: Just curious, what result did CCO[C@H]1OC(C(=O)N2CCCCCCC2)=C[C@@H](c2ccc(C(F)(F)F)cc2)[C@@H]1CCCO get here?
stdout: yes (1)

stdin: Just curious, what result did CC(C)CCN1CCC(C)(NC(=O)c2ccccc2)C1=O (stereo unspecified) get here?
stdout: no (0)

stdin: Just curious, what result did COc1ccccc1NC(=O)c1cc(Cl)nnc1Cl get here?
stdout: no (0)

stdin: Just curious, what result did O=C(CSc1nccc(=O)[nH]1)Nc1ccc(N2CCOCC2)c(Cl)c1 get here?
stdout: no (0)

stdin: Just curious, what result did O=C(NC(=S)Nc1ccccc1N1CCCCC1)c1ccc(F)cc1 get here?
stdout: yes (1)

stdin: Just curious, what result did Cc1ccc(C(=O)C(C)OC(=O)Cc2n[nH]c(=O)c3ccccc23)cc1C (stereo unspecified) get here?
stdout: no (0)

stdin: Just curious, what result did CCO[C@@H]1OC(C(=O)N2CCOCC2)=C[C@H](C)[C@H]1CCCO get here?
stdout: no (0)

stdin: Just curious, what result did COc1cc(C2C3=C(CCCC3=O)OC3=C2C(=O)CCC3)ccc1OCC(=O)Nc1ccccc1 get here?
stdout: no (0)

stdin: Just curious, what result did COc1ccc(N(CCC(=O)NCCc2ccccc2)S(=O)(=O)c2ccc(C)cc2C)cc1 get here?
stdout: no (0)

stdin: Just curious, what result did Cc1ccc(S(=O)(=O)N(C)c2ccc(OCC(=O)OCC(=O)N(CC#N)c3ccccc3)cc2)cc1 get here?
stdout: no (0)

stdin: Just curious, what result did COc1ccc(N(CC(=O)Nc2ccc(C)cc2C)S(=O)(=O)c2ccccc2[N+](=O)[O-])c(OC)c1 get here?
stdout: yes (1)
